This collection of values is drawn from PubChem BioAssay (NCI).

System: SR leukemia
Experiment: NCI tumour cell line growth inhibition, 48 h
Measurement type: TGI

According to the records, this compound Cc1cc(C#N)c(Nc2ccc(F)cc2[N+](=O)[O-])s1 displays TGI of > 100 µM

According to the records, this compound CC(C)=Cc1cccc2[nH]c(O)c(N=Nc3ccc(S(N)(=O)=O)cc3)c12 displays TGI of > 25 µM

According to the records, this compound COc1ccc(C(=O)c2nc3ccccc3nc2N2CCN(c3ccccc3)CC2)cc1OC displays TGI of > 100 µM

----------
System: SF-295 CNS
Experiment: NCI tumour cell line growth inhibition, 48 h
Answer each item with its documented TGI.

According to the records, this compound COc1ccc2nc3cc([N+](=O)[O-])ccc3c(Nc3ccc(S(=O)(=O)Nc4ncccn4)cc3)c2c1 displays TGI of > 100 µM

According to the records, this compound C#Cc1cccc(NC(=O)c2cccc(NC(=O)CCl)c2)c1 displays TGI of > 82.5 µM

According to the records, this compound CCO[C@H]1O[C@@H]2OC3(C)CCC4[C@H](C)CCC([C@H]1C)[C@]42OO3 (stereo partly drawn) displays TGI of > 100 µM

According to the records, this compound CC(ON1[C@](C)(c2ccccc2)CC[C@@]1(C)c1ccccc1)c1ccccc1 (stereo partly drawn) displays TGI of > 100 µM

According to the records, this compound O=Cc1ccccc1CCn1c(=O)c2cc3c(=O)n(CCc4ccccc4C=O)c(=O)c3cc2c1=O displays TGI of > 100 µM

According to the records, this compound CN(C)/C=C/c1c2c(nc3ccccc13)C(=O)c1cccnc1C2=O displays TGI of 1.62 µM

According to the records, this compound O=c1[nH]nc(CNc2ccc(Cl)cc2Cl)c2ccccc12 displays TGI of 44.7 µM

According to the records, this compound Cc1ccc(N=C2OP(=O)(Nc3ccc(C)cc3)Oc3ccccc32)cc1 (stereo not drawn) displays TGI of > 100 µM

----------
System: EKVX NSCLC
Assay: NCI tumour cell line growth inhibition, 48 h
Measurement type: GI50

According to the records, this molecule CN[C@@H](Cc1cccc2ccccc12)C(=O)N[C@@H](CC(C)C)B(O)O displays GI50 of 0.0277 µM

According to the records, this molecule O=C1c2ccccc2C(=O)c2c1oc1c2c(=O)[nH]c2ccc(Cl)cc21 displays GI50 of 0.249 µM

According to the records, this molecule COc1ccc2nc3c(cc2c1)C(=O)CC(c1ccccc1)C3 (stereo not drawn) displays GI50 of 5.81 µM

According to the records, this molecule COc1ccc(CNCCCN2C(=O)c3ccc4c5c(ccc(c35)C2=O)C(=O)N(CCCNCc2ccc(OC)c(OC)c2OC)C4=O)c(OC)c1OC displays GI50 of 0.0929 µM

According to the records, this molecule CC[O-].CC[O-].O=C([CH-]C(=O)c1ccccc1)CCCCCCC(=O)[CH-]C(=O)c1ccccc1.[Ti+4] displays GI50 of > 100 µM

According to the records, this molecule S=C1SCN(Cc2ccccc2)CN1Cc1ccccc1 displays GI50 of 21.2 µM

According to the records, this molecule CCc1cccc(NC(=O)Nc2ccc(Oc3ccc4nc(NC(=O)OC)[nH]c4c3)cc2)c1 displays GI50 of > 23.9 µM

According to the records, this molecule CCCS(=O)(=O)Nc1cccc(Nc2ncnc3cc(NC(=O)CCl)ccc23)c1Cl displays GI50 of 3.72 µM
